>  <compound>
O=C(NCCN(CC1CCCCC1)CC1CCCCC1)C1CCN(c2c(Cl)cncc2Cl)CC1 [Example E18]

>  <melting point>
236 to 238 °C

$$$$
>  <compound>
NC(=O)C1CCN(c2ncncc2Br)CC1 [Example E29]

>  <melting point>
188 to 190 °C

$$$$
>  <compound>
O=C(NCCN(Cc1ccccc1)Cc1ccccc1)C1CCN(c2c(Cl)cncc2Cl)CC1 [Example E17]

>  <melting point>
147 to 149 °C

$$$$
>  <compound>
O=C(NCCNCC1CCCCC1)C1CCN(c2c(Cl)cncc2Cl)CC1 [Example E16]

>  <melting point>
174 to 177 °C

$$$$
>  <compound>
NC(=O)C1CCN(c2c(Cl)cncc2Cl)C1 (centres unmarked) [Example E21]

>  <melting point>
161 to 163 °C

$$$$
>  <compound>
O=C(C1CCN(c2c(Cl)cncc2Cl)CC1)N1CCNCC1 [Example E20]

>  <melting point>
256 to 258 °C

$$$$
>  <compound>
O=C(NCCNC(=O)C1CCN(c2c(Cl)cncc2Cl)CC1)c1ccccc1 [Example E19]

>  <melting point>
209 to 211 °C

$$$$
>  <compound>
Cc1cncnc1N1CCC(C(N)=O)CC1

>  <melting point>
182 to 184 °C

$$$$
>  <compound>
CC(=O)N1CCN(c2c(Cl)cncc2Cl)CC1 [Example E9]

>  <melting point>
144 to 146 °C

$$$$
>  <compound>
O=C(NCCNc1c(Cl)cncc1Cl)C1CCN(c2c(Cl)cncc2Cl)CC1 [Example E5]

>  <melting point>
157 to 159 °C

$$$$
>  <compound>
NC(=O)C1CCN(c2ncncc2Cl)CC1

>  <melting point>
201 to 202 °C

$$$$
>  <compound>
N#CC1CCN(c2c(Br)cncc2Br)C1 (centres unmarked) [Example E23]

>  <melting point>
159 to 161 °C

$$$$
>  <compound>
O=C(c1ccccc1)N1CCN(c2c(Cl)cncc2Cl)CC1

>  <melting point>
132 to 134 °C

$$$$
>  <compound>
NC(=O)C1CCN(c2c(Br)cncc2-c2ccccc2)CC1 [Example E39]

>  <melting point>
220 to 222 °C

$$$$
